# Target Or System: Serine/threonine-protein kinase PknA (Mycobacterium tuberculosis (strain ATCC 25618 / H37Rv))
# Protocol Summary: Inhibition of Mycobacterium tuberculosis PknA (M1 to A296 residues) expressed in Escherichia coli BL21 (DE3) pLysS cells using [T-33P]ATP as substrate after 120 mins in presence of GarA by liquid scintillation method
Exercise: for every item that follows, state its recorded Ki.

Indicate the recorded Ki value for this compound: `Clc1ccc2nc(N3CCCCCC3)nc(Nc3cc(C4CC4)[nH]n3)c2c1`
> 33 µM

// fetch Ki given entry `COc1ccc2nc(N3CCCCCC3)nc(Nc3cc(C4CC4)[nH]n3)c2c1`
> 33 µM

Tell me Ki reported for `Cc1cnc(-c2ccc(S(N)(=O)=O)s2)nc1Nc1cc(C2CC2)n(C)n1`
> 4 µM

Quote Ki reported for `NC(=O)c1cccc(-c2nc(Nc3cc(C4CC4)[nH]n3)c3cc(Cl)ccc3n2)c1` please.
> 4 µM

Now look at this one.
Answer with the recorded Ki of `Cc1cnc(-c2ccc(S(N)(=O)=O)s2)nc1Nc1cc(C2CC2)[nH]n1` only.
0.018 µM

----------
# Target Or System: Serine/threonine-protein kinase PknA (Mycobacterium tuberculosis (strain ATCC 25618 / H37Rv), UniProt P9WI83)
# Sequence (P9WI83 whole entry, the tested form may be a part): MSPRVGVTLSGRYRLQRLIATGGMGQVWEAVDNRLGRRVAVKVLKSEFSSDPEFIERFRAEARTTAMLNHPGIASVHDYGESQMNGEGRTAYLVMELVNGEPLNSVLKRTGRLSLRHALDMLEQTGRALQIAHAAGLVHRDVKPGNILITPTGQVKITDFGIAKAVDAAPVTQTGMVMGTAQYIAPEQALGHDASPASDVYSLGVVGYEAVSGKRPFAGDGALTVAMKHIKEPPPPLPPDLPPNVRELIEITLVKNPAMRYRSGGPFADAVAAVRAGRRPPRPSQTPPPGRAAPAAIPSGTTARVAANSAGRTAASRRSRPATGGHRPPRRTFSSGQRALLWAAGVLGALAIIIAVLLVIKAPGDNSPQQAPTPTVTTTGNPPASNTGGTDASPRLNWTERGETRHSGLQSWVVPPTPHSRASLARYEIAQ
# Protocol Summary: Inhibition of Mycobacterium tuberculosis PknA (M1 to A296 residues) expressed in Escherichia coli BL21 (DE3) pLysS cells using [T-33P]ATP as substrate after 120 mins in presence of GarA by liquid scintillation method
Measure Name: Ki (nM)
Answers are plain numbers, in nM.

Specify measured Ki for `OCc1cccc(-c2nc(Nc3cc(C4CC4)[nH]n3)c3cc(Cl)ccc3n2)c1` .
2300

Please state, for each entry, its recorded Ki.
1. NS(=O)(=O)c1ccc(-c2nc(Nc3cc(C4CC4)[nH]n3)c3cc(Cl)ccc3n2)cc1
2. NC(=O)Cc1ccc(-c2nc(Nc3cc(C4CC4)[nH]n3)c3cc(Cl)ccc3n2)cc1

22
1800

Write down Ki measured for item `NS(=O)(=O)c1ccc(-c2ncc(Cl)c(Nc3cc(C4CC4)[nH]n3)n2)cc1`
2900

----------
# Target Or System: Serine/threonine-protein kinase PknB (Mycobacterium tuberculosis)
# Sequence (P9WI81 whole entry, the tested form may be a part): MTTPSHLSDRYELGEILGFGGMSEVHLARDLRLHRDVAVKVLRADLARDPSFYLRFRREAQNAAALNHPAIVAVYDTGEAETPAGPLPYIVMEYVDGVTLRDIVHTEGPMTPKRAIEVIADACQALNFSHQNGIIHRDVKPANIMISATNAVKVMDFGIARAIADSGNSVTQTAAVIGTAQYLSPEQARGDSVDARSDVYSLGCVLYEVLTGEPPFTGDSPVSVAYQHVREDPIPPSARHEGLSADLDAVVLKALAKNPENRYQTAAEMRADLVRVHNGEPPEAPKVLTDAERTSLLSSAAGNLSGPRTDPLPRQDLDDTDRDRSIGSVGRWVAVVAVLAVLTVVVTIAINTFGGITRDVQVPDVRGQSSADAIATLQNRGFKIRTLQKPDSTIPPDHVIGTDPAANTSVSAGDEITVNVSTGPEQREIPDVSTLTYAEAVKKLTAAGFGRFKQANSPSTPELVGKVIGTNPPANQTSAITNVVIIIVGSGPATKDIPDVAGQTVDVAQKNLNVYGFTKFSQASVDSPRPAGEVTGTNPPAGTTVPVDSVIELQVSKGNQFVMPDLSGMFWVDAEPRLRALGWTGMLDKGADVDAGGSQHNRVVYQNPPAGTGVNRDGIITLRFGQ
# Protocol Summary: Inhibition of Mycobacterium tuberculosis PknB (M1 to G279 residues) expressed in Escherichia coli BL21 (DE3) cells using [T-33P]ATP as substrate after 50 mins in presence of GarA by liquid scintillation method
Answer each item with its documented pKi.
Answers are plain numbers, as −log10 of the molar value.

Worked cases, answers included:
State its pKi: `N#Cc1cccc(-c2nc(Nc3cc(C4CC4)[nH]n3)c3cc(Cl)ccc3n2)c1`
7.30

Tell me pKi reported for `CC(=O)N1CCCN(c2nc(Nc3cc(C4CC4)[nH]n3)c3cc(Cl)ccc3n2)CC1`
6.82

Indicate its recorded pKi; the compound in question is `Fc1ccc2nc(N3CCCCCC3)nc(Nc3cc(C4CC4)[nH]n3)c2c1`
7.09

Specify reported pKi for the compound shown: `O=C1CCN(c2nc(Nc3cc(C4CC4)[nH]n3)c3cc(Cl)ccc3n2)CCN1`
6.72

Report pKi for `Cc1cnc(-c2ccc(S(N)(=O)=O)s2)nc1Nc1cc(C2CC2)[nH]n1`
8.40

Working through the 4 compounds below one at a time, give pKi for each.
1. NC(=O)c1ccc(-c2nc(Nc3cc(C4CC4)[nH]n3)c3cc(Cl)ccc3n2)cc1
2. N#Cc1ccc(-c2nc(Nc3cc(C4CC4)[nH]n3)c3ccccc3n2)cc1
3. CC(C)N1CCN(c2nc(Nc3cc(C4CC4)[nH]n3)c3cc(Cl)ccc3n2)CC1
4. CN1CCN(c2nc(Nc3cc(C4CC4)[nH]n3)c3cc(Cl)ccc3n2)CCC1=O

[7.54, 7.34, 5.85, 6.51]

----------
What Ki was measured for each of the following?
# Target Or System: Serine/threonine-protein kinase PknB (Mycobacterium tuberculosis)
# Protocol Summary: Inhibition of Mycobacterium tuberculosis PknB (M1 to G279 residues) expressed in Escherichia coli BL21 (DE3) cells using [T-33P]ATP as substrate after 50 mins in presence of GarA by liquid scintillation method
Numbers only, in nM.

Take a look at these entries with their results.
Supply Ki value. Item: `Clc1ccc2nc(N3CCNCC3)nc(Nc3cc(C4CC4)[nH]n3)c2c1`
990

Give recorded Ki. `O=C(c1ccccc1)N1CCN(c2nc(Nc3cc(C4CC4)[nH]n3)c3cc(Cl)ccc3n2)CC1`
310

Please report Ki for the following compound: `Clc1ccc2nc(N3CCCNCC3)nc(Nc3cc(C4CC4)[nH]n3)c2c1`
960

Supply reported Ki belonging to this compound: `Clc1ccc2nc(N3CCCOCC3)nc(Nc3cc(C4CC4)[nH]n3)c2c1`
150

Proceed to the following item.
Name the recorded Ki of the compound listed here: `N#Cc1ccc(-c2nc(Nc3cc(C4CC4)[nH]n3)c3cc(Cl)ccc3n2)cc1`
88

----------
# Target Or System: Serine/threonine-protein kinase PknA (Mycobacterium tuberculosis (strain ATCC 25618 / H37Rv), UniProt P9WI83)
# Protocol Summary: Inhibition of Mycobacterium tuberculosis PknA (M1 to A296 residues) expressed in Escherichia coli BL21 (DE3) pLysS cells using [T-33P]ATP as substrate after 120 mins in presence of GarA by liquid scintillation method
Measure Name: Ki

Provide the reported Ki of each entry below, same order.
1. N#Cc1ccc(-c2nc(Nc3cc(C4CC4)[nH]n3)c3cc(Cl)ccc3n2)cc1
2. Fc1ccc2nc(N3CCCCCC3)nc(Nc3cc(C4CC4)[nH]n3)c2c1
3. NS(=O)(=O)c1ccc(-c2nccc(Nc3cc(C4CC4)[nH]n3)n2)s1
4. NS(=O)(=O)c1cccc(-c2nc(Nc3cc(C4CC4)[nH]n3)c3cc(Cl)ccc3n2)c1
5. Clc1ccc2nc(-c3ccccc3)nc(Nc3cc(C4CC4)[nH]n3)c2c1

1: > 4000 nM; 2: > 33000 nM; 3: 18 nM; 4: < 8 nM; 5: > 4000 nM

----------
Exercise: state measured pKi for each of the compounds provided.
# Target Or System: Proto-oncogene tyrosine-protein kinase Src (Homo sapiens, UniProt P12931)
# Sequence (P12931 2-536 limits assumed): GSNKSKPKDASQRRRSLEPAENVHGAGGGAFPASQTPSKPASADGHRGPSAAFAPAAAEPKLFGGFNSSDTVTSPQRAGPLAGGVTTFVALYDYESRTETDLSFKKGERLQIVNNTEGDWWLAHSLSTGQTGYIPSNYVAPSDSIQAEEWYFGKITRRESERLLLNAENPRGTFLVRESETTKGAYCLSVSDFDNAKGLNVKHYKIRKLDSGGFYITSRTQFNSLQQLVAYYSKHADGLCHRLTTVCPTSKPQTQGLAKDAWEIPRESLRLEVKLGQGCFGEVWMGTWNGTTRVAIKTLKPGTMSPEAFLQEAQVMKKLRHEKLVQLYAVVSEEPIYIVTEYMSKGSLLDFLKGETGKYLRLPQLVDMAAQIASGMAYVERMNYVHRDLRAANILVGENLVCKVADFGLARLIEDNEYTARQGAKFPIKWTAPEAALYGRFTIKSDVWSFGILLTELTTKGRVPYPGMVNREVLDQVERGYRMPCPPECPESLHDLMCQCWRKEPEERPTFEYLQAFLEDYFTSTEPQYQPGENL
# Protocol Summary: Inhibition of recombinant SRC (unknown origin) using polyE4Y as substrate by pyruvate kinase-lactate dehydrogenase coupled assay
Give bare numbers, as −log10 of the molar value.

Illustrative cases are given below, each with its answer.
Return pKi for the following compound: `N#Cc1ccc(-c2nc(Nc3cc(C4CC4)[nH]n3)c3ccccc3n2)cc1`
7.74

Dear colleague, please send me the reported pKi for `N#Cc1cccc(-c2nc(Nc3cc(C4CC4)[nH]n3)c3cc(Cl)ccc3n2)c1` when you can.
6.70

# return recorded pKi for input `N#Cc1cccc(-c2nc(Nc3cc(C4CC4)[nH]n3)c3ccccc3n2)c1`
7.66

# evaluate next
// fetch pKi given entry `N#Cc1ccc(-c2nc(Nc3cc(C4CC4)[nH]n3)c3cc(Cl)ccc3n2)cc1`
6.15

----------
# Target Or System: Serine/threonine-protein kinase PknB (Mycobacterium tuberculosis)
# Protocol Summary: Inhibition of Mycobacterium tuberculosis PknB (M1 to G279 residues) expressed in Escherichia coli BL21 (DE3) cells using [T-33P]ATP as substrate after 50 mins in presence of GarA by liquid scintillation method
Measure Name: log10(Ki) (log10 of the value in nM)
Hey, these are logged values: log10 of Ki, nM being the unit before logging.

Sample answers from the record:
Give the value of log10(Ki) reported for the following: `N#CCc1cccc(-c2nc(Nc3cc(C4CC4)[nH]n3)c3cc(Cl)ccc3n2)c1`
1.58

Fill in log10(Ki) for record `Cc1ccc2nc(N3CCCCCC3)nc(Nc3cc(C4CC4)[nH]n3)c2c1`
1.99

Input `Clc1ccc2nc(N3CCCCCC3)nc(Nc3cc(C4CC4)[nH]n3)c2c1` , output reported log10(Ki).
2.18

Write down log10(Ki) measured for item `NS(=O)(=O)c1ccc(-c2nccc(Nc3cc(C4CC4)[nH]n3)n2)s1`
0.60

Identify measured log10(Ki) associated with `NC(=O)Cc1ccc(-c2nc(Nc3cc(C4CC4)[nH]n3)c3cc(Cl)ccc3n2)cc1`
1.36

Indicate its recorded log10(Ki); the compound in question is `NS(=O)(=O)c1ccc(-c2nc(Nc3cc(C4CC4)[nH]n3)c3cc(Cl)ccc3n2)cc1`
1.38

Identify measured log10(Ki) associated with `NC(=O)c1cccc(-c2nc(Nc3cc(C4CC4)[nH]n3)c3cc(Cl)ccc3n2)c1`
1.18

# context switch: different compound, same log10(Ki)
Look up and report measured log10(Ki) for this entry: `NS(=O)(=O)c1ccc(-c2ncc(Cl)c(Nc3cc(C4CC4)[nH]n3)n2)cc1`
1.11

----------
# Target Or System: Glycogen synthase kinase-3 beta (Homo sapiens, UniProt P49841)
# Sequence (P49841 whole entry): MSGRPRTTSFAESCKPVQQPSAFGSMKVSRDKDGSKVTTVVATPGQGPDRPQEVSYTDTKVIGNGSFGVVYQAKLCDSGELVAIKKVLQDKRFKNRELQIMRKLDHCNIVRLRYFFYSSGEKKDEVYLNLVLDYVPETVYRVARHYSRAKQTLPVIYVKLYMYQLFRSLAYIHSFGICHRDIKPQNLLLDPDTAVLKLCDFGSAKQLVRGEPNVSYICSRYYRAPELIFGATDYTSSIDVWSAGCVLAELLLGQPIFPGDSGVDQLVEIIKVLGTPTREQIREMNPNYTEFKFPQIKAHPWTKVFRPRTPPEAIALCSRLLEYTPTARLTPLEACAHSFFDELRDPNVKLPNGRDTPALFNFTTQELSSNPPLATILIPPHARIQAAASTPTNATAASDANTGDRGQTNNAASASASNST
# Protocol Summary: Inhibition of recombinant GSK3beta (unknown origin) using HSSPHQ(Sp)EDEEE as substrate by pyruvate kinase-lactate dehydrogenase coupled assay
Assignment: determine reported Ki for the given compounds.
One number for each entry, in nM.

Below, 2 compounds whose answers are already recorded.
Name the recorded Ki of `N#Cc1ccc(-c2nc(Nc3cc(C4CC4)[nH]n3)c3cc(Cl)ccc3n2)cc1` , assay system Glycogen synthase kinase-3 beta (Homo sapiens, UniProt P49841).
190

// output Ki; input `N#Cc1ccc(-c2nc(Nc3cc(C4CC4)[nH]n3)c3ccccc3n2)cc1` ; system Glycogen synthase kinase-3 beta (Homo sapiens, UniProt P49841)
70

With those in mind, consider the next compound.
# lookup: Glycogen synthase kinase-3 beta (Homo sapiens, UniProt P49841) Ki, key = `N#Cc1cccc(-c2nc(Nc3cc(C4CC4)[nH]n3)c3ccccc3n2)c1`
9

Numbers sourced from ChEMBL document CHEMBL4130590.
